test: Serum stability of prodrugs: hydrolysis by human serum; assay type: in vitro ADME; settings: 37 degrees, prodrug, sampled immediately
property name: Measured Initial Conc. in Serum (µM)

molecule | Measured Initial Conc. in Serum [µM]
COc1ccc2c(c1C(=O)OCOC(=O)C(C)(C)C)OB(O)[C@@H](Sc1nncs1)C2 [Compound 125] | 41.8
COc1ccc2c(c1C(=O)OCOC(=O)OC(C)C)OB(O)[C@@H](Sc1nncs1)C2 [Compound 122] | 44.3
CCOC(=O)OCOC(=O)c1c(OC)ccc2c1OB(O)[C@@H](Sc1nncs1)C2 [Compound 124] | 48.3
COc1ccc2c(c1C(=O)OCOC(=O)C(C)C)OB(O)[C@@H](Sc1nncs1)C2 [Compound 121] | 51.4
COc1ccc2c(c1C(=O)OCOC(C)=O)OB(O)[C@@H](Sc1nncs1)C2 [Compound 123] | 51.7

====

Measured Ki, listed per entry.
molecular target: purified class A, C and D enzymes (UniProt Q9F663); construct: rows headed: Ki (KPC-2, NCF); other: purified KPC-2; nitrocefin reporter substrate; conditions: read-out: Ki (KPC-2, NCF); purified KPC-2; nitrocefin reporter substrate

See these solved cases before continuing.
smiles record | Ki
COc1ccc2c(c1C(=O)O)OB(O)[C@@H](Sc1nnc(OCCN)s1)C2 | 100 to 1000 nM
COc1ccc2c(c1C(=O)O)OB(O)[C@@H](Sc1nnc(NCCNC3CNC3)s1)C2 | 100 to 1000 nM

Which measured Ki value corresponds to COc1ccc2c(c1C(=O)O)OB(O)[C@@H](Sc1nnc(NC3CCNCC3)s1)C2 ?
< 100 nM

Quick one: COc1ccc2c(c1C(=O)O)OB(O)[C@@H](Sc1nnc[nH]1)C2
100 to 1000 nM

Quick one: NC(=O)COc1ccc2c(c1C(=O)O)OB(O)[C@@H](Sc1nnc(N)s1)C2
100 to 1000 nM

Quick one: Nc1nnc(S[C@H]2Cc3ccc(O)c(C(=O)O)c3OB2O)s1
< 100 nM

Quick one: COc1ccc2c(c1C(=O)O)OB(O)[C@@H](Sc1nnc(SC(CN)CN)s1)C2
100 to 1000 nM

Quick one: COc1ccc2c(c1C(=O)O)OB(O)[C@@H](SCCN1CCNCC1)C2
< 100 nM

====

target: OXA-48 (Klebsiella pneumoniae, UniProt Q6XEC0); test: Inhibition of purified class D carbapenemase OXA-48 (Ki, carbapenem substrates); type: biochemical; conditions: cleavage of tebipenem by OXA-48; read-out: Ki, Tebipenem
Sequence (Q6XEC0 23-265, looked up): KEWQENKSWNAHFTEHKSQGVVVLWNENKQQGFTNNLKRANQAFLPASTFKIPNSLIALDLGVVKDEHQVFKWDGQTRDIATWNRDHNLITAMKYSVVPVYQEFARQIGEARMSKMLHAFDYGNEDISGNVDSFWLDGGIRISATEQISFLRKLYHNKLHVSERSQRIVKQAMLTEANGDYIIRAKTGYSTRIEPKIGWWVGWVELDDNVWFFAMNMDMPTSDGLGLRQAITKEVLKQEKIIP
property name: Ki

Which measured Ki value corresponds to Nc1nnc(S[C@H]2Cc3cccc(C(=O)O)c3OB2O)s1 ?
10 to 100 nM

Quick one: Nn1cnnc1S[C@H]1Cc2cccc(C(=O)O)c2OB1O
> 100 nM

Quick one: COc1ccc2c(c1C(=O)O)OB(O)[C@@H](Sc1nnc(N)s1)C2
< 10 nM

Quick one: CSc1ccc2c(c1C(=O)O)OB(O)[C@@H](Sc1nnc(N)s1)C2
< 10 nM

Quick one: Nc1nnc(S[C@H]2Cc3ccc(F)c(C(=O)O)c3OB2O)s1
< 10 nM

====

target: VIM-1 (Pseudomonas aeruginosa); construct: culture supernatant used unpurified; assay: biochemical; details: cleavage of nitrocefin (200 uM) by VIM-1 supernatant
Measured IC50, listed per entry.

Which measured IC50 value corresponds to COc1ccc2c(c1C(=O)O)OB(O)[C@@H](Sc1nncs1)C2 ?
< 1000 nM
